Assay system: helicase domain of the Pol θ protein (Homo sapiens, UniProt O75417)
Construct: The helicase domain of the Pol θ protein was purified from insect protein expression system; made in house; host or cells: insect protein expression system
Sequence (O75417 102-554 limits assumed): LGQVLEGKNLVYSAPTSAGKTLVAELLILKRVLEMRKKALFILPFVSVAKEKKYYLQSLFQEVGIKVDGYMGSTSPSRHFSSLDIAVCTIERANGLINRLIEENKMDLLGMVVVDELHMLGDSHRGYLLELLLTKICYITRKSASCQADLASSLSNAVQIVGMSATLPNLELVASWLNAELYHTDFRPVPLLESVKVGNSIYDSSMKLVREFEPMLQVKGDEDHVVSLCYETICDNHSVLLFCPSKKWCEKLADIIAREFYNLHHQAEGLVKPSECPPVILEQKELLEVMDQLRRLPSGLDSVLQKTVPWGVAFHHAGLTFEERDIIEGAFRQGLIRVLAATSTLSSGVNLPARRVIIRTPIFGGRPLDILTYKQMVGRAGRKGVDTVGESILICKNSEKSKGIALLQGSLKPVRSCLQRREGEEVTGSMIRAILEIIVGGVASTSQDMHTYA
Assay overview: Biochemical Activity Assay (ADP Glo Assay) of Pol θ inhibitor, ATPase activity
Particulars: ADP-Glo assay, ATPase activity of Pol θ helicase domain, ssDNA substrate; read-out: Biochemical assay IC50
pIC50: −log10 of the molar value.
The following compounds are shown together with reported pIC50 values.
Measurement kind: pIC50

{"Sample smiles": "COc1cnc(Cl)cc1-c1cc(C)ncc1C(=O)Nc1nc2cnc(-c3c(F)cnn3C)cc2s1", "Measured": 8.63}
{"Sample smiles": "COc1cnc(Cl)cc1-c1cc(C)ncc1C(=O)Nc1nc2c(s1)CNCC2", "Measured": 5.91}
{"Sample smiles": "COc1cnc(Cl)cc1-c1cc(C)ncc1C(=O)Nc1nc2ccc(-c3c(C)cnn3C)cc2s1", "Measured": 8.31}
{"Sample smiles": "COc1cnc(Cl)cc1-c1cc(C)ncc1C(=O)Nc1nc2cnc(-c3c(C)nnn3C)cc2s1", "Measured": 8.74}

---

Assay overview: cells
Particulars: Homo sapiens, DLD-1, 240 h, read-out: Cell viability assay IC50 (nM), CTG assay, CellTiter Glo, read on Day 10; cell line not given
The following molecules are shown together with reported IC50 values.
Measurement kind: IC50 (nM)

{"Molecule": "COc1cnc(Cl)cc1-c1cc(C)ncc1C(=O)Nc1nc2ccc(N3CCn4ccnc4C3)nc2s1 [Example 139]", "U": "nM", "Lt gt eq": "=", "Measured": 121}
{"Molecule": "COc1cnc(Cl)c(F)c1-c1cc(C)ncc1C(=O)Nc1nc2ncc(-c3ccn(C)n3)cc2s1 [Example 17]", "U": "nM", "Lt gt eq": "=", "Measured": 103}
{"Molecule": "COc1cnc(Cl)cc1-c1cc(C)ncc1C(=O)Nc1nc2ncc(C(=O)N3CCC(O)CC3)cc2s1 [Example 96]", "U": "nM", "Lt gt eq": "=", "Measured": 7640}
{"Molecule": "COc1cnc(Cl)cc1-c1cc(C)ncc1C(=O)Nc1nc2cnc(-c3c(C)nn4ccccc34)cc2s1 [Example 158]", "U": "nM", "Lt gt eq": "=", "Measured": 4.64}
{"Molecule": "COc1cnc(Cl)cc1-c1cc(C)ncc1C(=O)Nc1nc2ncc(N3CCC(O)C(C)C3)cc2s1 (stereo not drawn) [Example 67]", "U": "nM", "Lt gt eq": "=", "Measured": 46.4}
{"Molecule": "COc1cnc(Cl)cc1-c1cc(C)ncc1C(=O)Nc1nc2cnc(N3CC[C@@H](O)C[C@@H]3C)nc2s1 [Example 140]", "U": "nM", "Lt gt eq": "=", "Measured": 68.1}
{"Molecule": "COc1cnc(Cl)cc1-c1cc(C)ncc1C(=O)Nc1nc2ncc(C3=COCCO3)cc2s1 [Example 86]", "U": "nM", "Lt gt eq": "=", "Measured": 23.3}
{"Molecule": "COc1cnc(Cl)cc1-c1cc(C)ncc1C(=O)Nc1nc2ccc(-c3c(C)cnn3C)nc2s1 [Example 80]", "U": "nM", "Lt gt eq": "=", "Measured": 30.3}
{"Molecule": "COc1cnc(Cl)c(F)c1-c1cc(C)ncc1C(=O)Nc1nc2ccc(N3CCC(O)CC3)nc2s1 [Example 53]", "U": "nM", "Lt gt eq": "=", "Measured": 9.38}
{"Molecule": "COc1cnc(Cl)cc1-c1cc(C)ncc1C(=O)Nc1nc2ncc(C3=CCC4(CC3)COC4)cc2s1 [Example 78]", "U": "nM", "Lt gt eq": "=", "Measured": 8.21}
{"Molecule": "COc1cnc(Cl)cc1-c1cc(C)ncc1C(=O)Nc1nc2cc(C3CCC(O)CC3)cnc2s1 (stereo not drawn) [Example 35]", "U": "nM", "Lt gt eq": "=", "Measured": 3290}
{"Molecule": "COc1cnc(Cl)cc1-c1cc(C)ncc1C(=O)Nc1nc2cnc(-c3ccc(S(F)(F)(F)(F)F)cc3)cc2s1 [Example 188]", "U": "nM", "Lt gt eq": "<", "Measured": 1.52}
{"Molecule": "COc1cnc(Cl)c(F)c1-c1cc(C)ncc1C(=O)Nc1nc2ncc(N3CCC(O)CC3)cc2s1 [Example 127]", "U": "nM", "Lt gt eq": "=", "Measured": 15.8}
{"Molecule": "COc1cnc(Cl)c(F)c1-c1cc(C)ncc1C(=O)Nc1nc2cnc(-c3c(C)noc3C)cc2s1 [Example 211]", "U": "nM", "Lt gt eq": "=", "Measured": 3.28}
{"Molecule": "COc1cnc(Cl)cc1-c1cc(C)ncc1C(=O)Nc1nc2ncc(N3CCC(N(C)C)CC3)cc2s1 [Example 72]", "U": "nM", "Lt gt eq": "=", "Measured": 190}
